Tested on: ZIKV
Procedure details: Plaque assay, anti-ZIKV activity in Vero cells
Assay type: cell-based, Zika virus
Conditions used: plaque assay, independently in triplicate, read-out: EC50 (anti-ZIKV activity, plaque formation)
Measure name: EC50

Give the measured EC50 of CCc1c(CC2CCCCC2)nc(SCC(=O)Nc2cc(F)ccc2OC)[nH]c1=O .
> 50 µM

====

Procedure details: MTT cytotoxicity assay in Huh7 cells
Assay type: cell-based
Conditions used: human
Protocol: MTT assay was used to detect the toxicity of the compound. Cells were seeded in 96-well plates and cultured overnight. Compounds with different concentrations were added and incubated for 96 h. […] After the crystalline formamidine was completely dissolved, the optical density (OD) value was measured using a microplate reader (BioTek, United States) with a wavelength of 570 nm and a reference wavelength of 630 nm. […]
Measure name: CC50 at 96 h

Give the measured CC50 at 96 h of CCc1c(C2CCCCC2)nc(SCC(=O)Nc2cc(F)cc(F)c2)[nH]c1=O .
> 200 µM

Values were extracted from paper PMC9605737.
